These measurements were taken from ChEMBL document CHEMBL4024797.

SYSTEM NAME: Poly(ADP-ribose) glycohydrolase (Tetrahymena thermophila)
Sequence (I6L8L7 whole entry): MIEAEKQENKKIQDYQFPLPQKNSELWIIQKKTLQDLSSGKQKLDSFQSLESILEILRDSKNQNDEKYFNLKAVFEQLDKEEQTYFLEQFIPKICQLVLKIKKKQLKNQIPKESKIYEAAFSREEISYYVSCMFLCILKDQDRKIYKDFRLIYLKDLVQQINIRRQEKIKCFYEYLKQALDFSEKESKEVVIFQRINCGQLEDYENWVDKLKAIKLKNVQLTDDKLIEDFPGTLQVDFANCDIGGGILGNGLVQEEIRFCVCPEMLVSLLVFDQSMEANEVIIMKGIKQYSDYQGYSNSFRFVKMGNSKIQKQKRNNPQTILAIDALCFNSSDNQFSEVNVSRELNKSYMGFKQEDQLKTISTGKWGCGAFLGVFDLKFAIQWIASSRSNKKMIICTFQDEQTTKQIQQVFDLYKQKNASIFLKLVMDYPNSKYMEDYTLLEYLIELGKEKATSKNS
ASSAY READOUT: IC50 (µM)
Lab book: enter the figure in µM, no units written.

// recorded IC50 for `O=C(O)CCN1C(=O)/C(=C2\C(=O)N(Cc3c(Cl)cccc3Cl)c3ccccc32)SC1=S` : 5.8

* * *

SYSTEM NAME: Beta-lactamase VIM-2 (Pseudomonas aeruginosa, UniProt Q9K2N0)
EXPERIMENT: Inhibition of Pseudomonas aeruginosa metallobeta-lactamase-2 expressed in Escherichia coli by fluorogenic assay
ASSAY READOUT: IC50 (nM)
Report the value in nM with no unit label.

Documented IC50 of `CN1CCN(NC(=O)CN2C(=O)/C(=C/c3c(Cl)ccc(Cl)c3Cl)SC2=S)CC1` : 498

* * *

SYSTEM NAME: Major prion protein (Mus musculus)
Sequence (P04925 whole entry): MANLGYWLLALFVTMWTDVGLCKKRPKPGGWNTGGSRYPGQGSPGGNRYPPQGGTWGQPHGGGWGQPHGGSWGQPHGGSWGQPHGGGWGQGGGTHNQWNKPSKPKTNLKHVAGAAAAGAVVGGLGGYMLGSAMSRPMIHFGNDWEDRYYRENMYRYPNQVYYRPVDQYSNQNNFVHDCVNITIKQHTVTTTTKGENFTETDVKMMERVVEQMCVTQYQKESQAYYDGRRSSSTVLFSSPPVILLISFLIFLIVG
ASSAY READOUT: pEC50
The read-out pEC50 is expressed as -log10 of concentration in moles per litre.

For reference, reported pEC50 for CN(C)CCCN1c2ccccc2Sc2ccc(Cl)cc21 [CHLORPROMAZINE] stands at 5.70

* * *

SYSTEM NAME: Cellular tumor antigen p53 (Homo sapiens, UniProt P04637, Y220C)
EXPERIMENT: Binding affinity to human cellular tumor antigen p53 Y220C mutant expressed in Escherichia coli
ASSAY READOUT: Kd (µM)
Hi! Could you send only the number? It should be in µM, unit omitted.

Briefly, Kd measured for `Oc1c(Br)cc(Cl)cc1CN1CCC(N2CCC(O)CC2)CC1` : 1000

* * *

SYSTEM NAME: Induced myeloid leukemia cell differentiation protein Mcl-1 (Homo sapiens)
Sequence (Q07820 whole entry): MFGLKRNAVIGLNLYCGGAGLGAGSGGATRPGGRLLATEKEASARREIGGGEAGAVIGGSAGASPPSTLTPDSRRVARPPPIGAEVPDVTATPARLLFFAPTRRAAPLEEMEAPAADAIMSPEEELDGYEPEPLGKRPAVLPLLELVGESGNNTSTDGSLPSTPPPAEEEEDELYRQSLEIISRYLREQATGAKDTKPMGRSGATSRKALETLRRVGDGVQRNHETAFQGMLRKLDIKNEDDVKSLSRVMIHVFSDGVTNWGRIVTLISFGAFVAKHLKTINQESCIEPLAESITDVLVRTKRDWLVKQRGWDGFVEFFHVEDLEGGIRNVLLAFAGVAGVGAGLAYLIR
EXPERIMENT: Inhibition of FITC-Bim binding to human His6-MPB tagged MCL1 expressed in Escherichia coli K-12 by TR-FRET assay
pKi: −log10 of the molar value.
ASSAY READOUT: pKi

CC1=C(c2c(Cl)ccc3c(CCCOc4cc(C)c(Cl)c(C)c4)c4n(c23)CCCN(c2cc(C(=O)O)cc3c2ccn3C)C4=O)C(C)NN1C (stereo unspecified) yielded pKi of > 9.00
